Sourced from ChEMBL document CHEMBL3596186

- System: HUVEC
- protocol-notes: Antiproliferative activity against HUVEC after 48 hrs by MTT assay
- Assay type: cell-based
- conditions-used: Homo sapiens
assay-readout: IC50

1) CCOc1ccc(-c2nc(N)sc2-c2cc(OC)c(OC)c(OC)c2)cc1: 0.0402 µM

###

Listed here are compounds together with their documented pIC50.
- protocol-notes: Inhibition of pig microtubule polymerization after 30 mins by turbidimetric assay
- Design: species or system Sus scrofa
pIC50: −log10 of the molar value.
assay-readout: pIC50

1. CCNC(=O)Nc1nc(-c2ccc(OCC)cc2)c(-c2cc(OC)c(OC)c(OC)c2)s1: 5.41
2. COc1ccc(/C=C\c2cc(OC)c(OC)c(OC)c2)cc1O [COMBRETASTATIN A4]: 5.23

###

- protocol-notes: Inhibition of pig microtubule polymerization after 30 mins by turbidimetric assay
- Parameters: species or system Sus scrofa
assay-readout: IC50 (µM)

1) CCOc1ccc(-c2nc(N)sc2-c2cc(OC)c(OC)c(OC)c2)cc1: 2.74
2) COc1cc2c(c(OC)c1OC)-c1ccc(OC)c(=O)cc1[C@@H](NC(C)=O)CC2 [COLCHICINE]: 5.02
3) CCCC(=O)Nc1nc(-c2ccc(OCC)cc2)c(-c2cc(OC)c(OC)c(OC)c2)s1: 9.04
4) CCOc1ccc(-c2ncsc2-c2cc(OC)c(OC)c(OC)c2)cc1: 3.55

###

Measured pIC50, listed per entry for reference.
- protocol-notes: Antiproliferative activity against human HCC827 cells after 48 hrs by MTT assay
- Type: functional, cell-based
- conditions-used: HCC827, 48 h
pIC50: −log10 of the molar value.
assay-readout: pIC50

1. CCOc1ccc(-c2nc(N)sc2-c2cc(OC)c(OC)c(OC)c2)cc1: 7.01
2. CCNC(=O)Nc1nc(-c2ccc(OCC)cc2)c(-c2cc(OC)c(OC)c(OC)c2)s1: 6.21
3. CCOc1ccc(-c2ncsc2-c2cc(OC)c(OC)c(OC)c2)cc1: 6.33

###

- Test system: HCT-116
- protocol-notes: Antiproliferative activity against human HCT116 cells after 48 hrs by MTT assay
- Assay type: functional, cell-based
- conditions-used: HCT-116, 48 h
Entries and their IC50
assay-readout: IC50 (nM)

1. CCOc1ccc(-c2nc(N)sc2-c2cc(OC)c(OC)c(OC)c2)cc1: 8.4
2. CCOc1ccc(-c2nc(NC(=O)CC)sc2-c2cc(OC)c(OC)c(OC)c2)cc1: 50.5
3. CCCC(=O)Nc1nc(-c2ccc(OCC)cc2)c(-c2cc(OC)c(OC)c(OC)c2)s1: 18

###

The reader will find reported IC50 values listed item by item below.
- Test system: HCT-116
- protocol-notes: Antiproliferative activity against human HCT116 cells after 48 hrs by MTT assay
- Format: functional, cell-based
- conditions-used: HCT-116, 48 h
assay-readout: IC50

1) CCOc1ccc(-c2nc(NS(=O)(=O)c3ccc(C)c(C)c3)sc2-c2cc(OC)c(OC)c(OC)c2)cc1: > 5000 nM
2) CCOc1ccc(-c2nc(NC(=O)C(C)C)sc2-c2cc(OC)c(OC)c(OC)c2)cc1: 22.5 nM
3) CCOc1ccc(-c2nc(N(Cc3ccccc3)Cc3ccccc3)sc2-c2cc(OC)c(OC)c(OC)c2)cc1: > 5000 nM
4) CCOc1ccc(-c2nc(N(C)C)sc2-c2cc(OC)c(OC)c(OC)c2)cc1: > 5000 nM
5) C=CCN(CC=C)c1nc(-c2ccc(OCC)cc2)c(-c2cc(OC)c(OC)c(OC)c2)s1: > 5000 nM
6) CCOc1ccc(-c2nc(C(OCC)OCC)sc2-c2cc(OC)c(OC)c(OC)c2)cc1: > 5000 nM
7) CCOC(=O)c1nc(-c2ccc(OCC)cc2)c(-c2cc(OC)c(OC)c(OC)c2)s1: > 5000 nM
8) CCOc1ccc(-c2nc(NC(C)=O)sc2-c2cc(OC)c(OC)c(OC)c2)cc1: 10.2 nM
9) CCOc1ccc(-c2nc(NS(=O)(=O)c3ccc([N+](=O)[O-])cc3OC)sc2-c2cc(OC)c(OC)c(OC)c2)cc1: > 5000 nM
10) COc1ccc(-c2nc(N)sc2-c2cc(OC)c(OC)c(OC)c2)cc1: 93.7 nM
11) CCOc1ccc(-c2nc(C)sc2-c2cc(OC)c(OC)c(OC)c2)cc1: 64 nM
12) CCOc1ccc(-c2nc(NS(=O)(=O)c3ccc(Br)cc3C(F)(F)F)sc2-c2cc(OC)c(OC)c(OC)c2)cc1: > 5000 nM
13) CCOc1ccc(-c2ncsc2-c2cc(OC)c(OC)c(OC)c2)cc1: 62 nM
14) CCOc1ccc(-c2nc(NS(=O)(=O)c3ccsc3Cl)sc2-c2cc(OC)c(OC)c(OC)c2)cc1: > 5000 nM
15) CCOc1ccc(-c2sc(N)nc2-c2cc(OC)c(OC)c(OC)c2)cc1: 9.2 nM
16) CCNC(=O)Nc1nc(-c2ccc(OCC)cc2)c(-c2cc(OC)c(OC)c(OC)c2)s1: 22.1 nM
17) CCOc1ccc(-c2nc(C=O)sc2-c2cc(OC)c(OC)c(OC)c2)cc1: 48 nM
18) CCOc1ccc(-c2nc(NS(=O)(=O)c3ccc(OC)c(F)c3)sc2-c2cc(OC)c(OC)c(OC)c2)cc1: > 5000 nM
19) CCCN(CCC)c1nc(-c2ccc(OCC)cc2)c(-c2cc(OC)c(OC)c(OC)c2)s1: > 5000 nM
